B1: glmS ribozyme (parent)
chain: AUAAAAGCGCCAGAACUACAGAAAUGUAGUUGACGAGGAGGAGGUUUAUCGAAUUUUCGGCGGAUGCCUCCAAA

Variants of: B1
ASSAY_COMMENT: self-cleavage kobs at 40 uM GlcN6P; higher = faster cleavage; RNA array
CONDITION_DESCRIPTION: with glucosamine-6-phosphate
Variants at the floor of the assay were thinned out.
ENDPOINT: self-cleavage kobs at 40 uM GlcN6P

Consider the worked cases shown below.
[[record]]
residue_change = "A15C U30G"
measured_result = "0.00258 s⁻¹"

[[record]]
residue_change = "G59A G63C"
measured_result = "< 1e-05 s⁻¹"


API: the following record is the query input.
IN: In one line, give reported self-cleavage kobs at 40 uM GlcN6P of the entry U54G G63A A64U C70U .
OUT: < 1e-05 s⁻¹
